biological target: KRAS G13D (Homo sapiens (Human), UniProt P01116+P62937, G13D); assay: Ras-Raf (BRAF RBD) disruption / FRET / MOA assay, KRAS G13D; type: biochemical; details: read-out: IC50* KRAS G13D FRET data
Sequence (P01116-2 other isoform, or with tags, fused parts or gaps G13D, one chain of several): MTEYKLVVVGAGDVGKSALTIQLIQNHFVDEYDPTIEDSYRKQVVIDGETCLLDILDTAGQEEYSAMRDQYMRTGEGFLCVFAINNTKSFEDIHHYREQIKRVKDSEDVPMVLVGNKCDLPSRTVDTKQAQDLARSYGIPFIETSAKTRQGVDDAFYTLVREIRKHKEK
pIC50: −log10 of the molar value.
Assign pIC50 to each entry below.

Item under review: CCn1c(-c2cccnc2[C@H](C)OC)c2c3cc(ccc31)-c1cccc(c1)C[C@H](NC(=O)[C@H](C(C)C)N(C)C(=O)[C@H]1CCN(C(=O)C#CC(C)(C)N(C)C)C1)C(=O)N1CCC[C@H](N1)C(=O)OCC(C)(C)C2 (atropisomer, axis not shown) [Example A290] . Reported pIC50?
5.00 to 6.00

For the compound C=CC(=O)N1CC[C@H](C(=O)N(C)[C@H](C(=O)N[C@H]2Cc3cc(F)cc(c3)-c3ccc4c(c3)c(c(-c3cccnc3[C@H](C)OC)n4CC)CC(C)(C)COC(=O)[C@@H]3CCCN(N3)C2=O)C(C)C)C1 (atropisomer, axis not shown) [Example A342] , what pIC50 is on record?
5.00 to 6.00

Please look up its pIC50: C=CC(=O)N1CC[C@H](C(=O)N(C)[C@@H](C(=O)N[C@H]2Cc3cc(O)cc(c3)-c3ccc4c(c3)c(c(-c3cccc(CN(C)C)c3)n4CC)CC(C)(C)COC(=O)[C@@H]3CCCN(N3)C2=O)C(C)C)C1 [Example A106]
< 5.00

Fill in the blank: the reported pIC50 of CCn1c(-c2cccnc2[C@H](C)OC)c2c3cc(ccc31)-c1csc(n1)C[C@H](NC(=O)[C@H](C(C)C)N(C)C(=O)N1CCC3(CC1)CN(C(=O)/C=C/C(F)F)C3)C(=O)N1CCC[C@H](N1)C(=O)OCC(C)(C)C2 (atropisomer, axis not shown) [Example A683] is ____.
6.00 to 7.00

###

I'd be grateful if you could share measured IC50 for these entries.
target: KRAS G12V (Homo sapiens (Human), UniProt P01116+P62937, G12V); test: Ras-Raf (BRAF RBD) disruption / FRET / MOA assay, KRAS G12V; format: biochemical; details: read-out: IC50* KRAS G12V FRET data
Sequence (P01116-2 other isoform, or with tags, fused parts or gaps G12V): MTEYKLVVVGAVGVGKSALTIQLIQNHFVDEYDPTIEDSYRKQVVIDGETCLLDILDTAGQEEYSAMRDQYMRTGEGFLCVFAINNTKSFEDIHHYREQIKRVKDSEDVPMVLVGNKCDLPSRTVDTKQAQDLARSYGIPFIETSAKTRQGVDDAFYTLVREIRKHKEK
Sequence (P62937 whole entry): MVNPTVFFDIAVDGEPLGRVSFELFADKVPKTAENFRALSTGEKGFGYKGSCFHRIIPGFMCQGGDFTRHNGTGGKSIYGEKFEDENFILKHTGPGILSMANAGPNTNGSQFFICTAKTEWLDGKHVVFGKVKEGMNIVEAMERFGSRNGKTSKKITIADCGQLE

What value of IC50 has been recorded for this entry: CO[C@@H](C)c1ncccc1-c1c2c3nc(ccc3n1CC(F)(F)F)-c1cccc(c1)C[C@H](NC(=O)[C@@H](COC1CN(C(=O)C#CC(C)(C)N(C)C)C1)C(C)C)C(=O)N1CCC[C@H](N1)C(=O)OCC(C)(C)C2 (atropisomer, axis not shown)
> 10 µM

Which IC50 value belongs to C=CC(=O)N1CC[C@H](C(=O)N(C)[C@H](C(=O)N[C@H]2Cc3cc(O)cc(c3)-c3ccc4nc(-c5cccnc5COC)c(n4c3)CC(C)(C)COC(=O)[C@@H]3CCCN(N3)C2=O)C(C)C)C1 ?
> 10 µM

Look up IC50 for this compound: C=CC(=O)N(C)CCC1CCN(C(=O)N(C)[C@H](C(=O)N[C@H]2Cc3nc(cs3)-c3ccc4c(c3)c(c(-c3cccnc3[C@H](C)OC)n4CC)CC(C)(C)COC(=O)[C@@H]3CCCN(N3)C2=O)C(C)C)CC1 (atropisomer, axis not shown)
0.01 to 0.1 µM

So what's the measured IC50 for this one? C=CC(=O)N1CC[C@]2(COCCN2C(=O)N(C)[C@H](C(=O)N[C@H]2Cc3nc(cs3)-c3ccc4c(c3)c(c(-c3cccnc3[C@H](C)OC)n4CC)CC(C)(C)COC(=O)[C@@H]3CCCN(N3)C2=O)C(C)C)C1 (atropisomer, axis not shown)
1 to 10 µM

Values compiled from patent US11566007B2.
